# System: HEK-293T
# RUN_DESCRIPTION: Multiplex assay against HEK293T
# Format: toxicity, cell-based
# EXPERIMENTAL_PARAMETERS: human, 12 h, 10 µM, compound concentration 10 uM, replicate 1
MEASURED_PROPERTY: Population Tubulin-Different-Phenotype (%)
Number only, in %; omit the unit.

Some compounds with recorded Population Tubulin-Different-Phenotype (%):
O=C(Nc1cc(-c2ccccc2)nn1-c1ccccc1F)c1ccc([N+](=O)[O-])cc1 = 40
Cc1cc(NC(=O)NCCN2CCC(O)(Cc3ccccc3)CC2)c2ccccc2n1 = 41

[Q] Supply reported Population Tubulin-Different-Phenotype (%) belonging to this compound: O=C(O)CCC/C=C\CC1C(O)CC(O)C1/C=C/C(O)COc1cccc(Cl)c1 (centres undefined)
[A] 41

[Q] For the compound C[C@H](NC(=O)CNC(=O)c1cccc(Cl)c1)c1ccccc1 , give its measured Population Tubulin-Different-Phenotype (%) value.
[A] 39

###

# System: U2OS
# RUN_DESCRIPTION: Multiplex assay against U2OS
# Assay type: toxicity, cell-based
# EXPERIMENTAL_PARAMETERS: human, 24 h, 1 µM, compound concentration 1 uM, replicate 2
Non-standard residues stand in square brackets, D forms with d. Residues, ends and D or L forms follow the SMILES beside them.
MEASURED_PROPERTY: Population Tubulin-Different-Phenotype (%)
I only need the number, in %, no unit after it.

C=CCN1C[C@H](C(=O)N(CCCN(C)C)C(=O)NCC)C[C@@H]2c3cccc4[nH]cc(c34)C[C@H]21 = 6
CC(C)C[C@@H]1NC(=O)[C@@H](C(C)C)NC(=O)[C@@H]2CCCN2C(=O)[C@@H](CC(=O)O)NC(=O)[C@@H](Cc2c[nH]c3ccccc23)NC1=O [BQ-123] (cyclo(L[dW][dD]P[dV])) = 3
COc1cc(OC2CCN(C(C)=O)CC2)ccc1C(=O)N1CCC(N2C(=O)OCc3ccccc32)CC1 = 3
Cc1cc(=O)n(C)c2cc(N3C(=O)CC[C@H](NS(=O)(=O)CC(C)C)[C@H]3c3ccc(Cl)cc3)ccc12 = 6

Now look at this one.
[Q] Supply reported Population Tubulin-Different-Phenotype (%) belonging to this compound: S=C(NCCCc1c[nH]cn1)NCCCN(Cc1ccc(Cl)c(Cl)c1)c1ccc(Br)cn1
[A] 3

###

# Tested on: Fibroblast
# RUN_DESCRIPTION: Multiplex assay against human fibroblast
# Type: toxicity, cell-based
# EXPERIMENTAL_PARAMETERS: 12 h, 10 µM, compound concentration 10 uM, replicate 2
MEASURED_PROPERTY: Population Apoptotic (%)
The figure you give is taken to be in %; do not add the unit.

Cc1ccc(OCC(O)C(C)NC(C)C)c2c1CCC2.Cl (configuration not stated) = 25
CCCCCCNC(=O)Nc1ccc(S(=O)(=O)Nc2ccc(CCNC[C@H](O)COc3ccc(O)cc3)cc2)cc1 = 42

[Q] Assign Population Apoptotic (%) to the following record: COc1cc2nc(N3CCN(C(=O)COc4c(OC)cccc4C(C)C)CC3)nc(N)c2cc1OC.Cl.Cl
[A] 29

[Q] Consider the compound C[C@@H]1CC(=O)Nc2cccc(-c3ccc4c(c3)c(-c3cnn(C)c3)nn4C)c2N1 and give its recorded Population Apoptotic (%).
[A] 30

[Q] Provide one value: measured Population Apoptotic (%) of CN1CCN2c3ccccc3Cc3ccccc3C2C1.Cl (configuration not stated) [MIANSERIN HYDROCHLORIDE]
[A] 33

[Q] Please list Population Apoptotic (%) recorded for the compound S=C(NCCCc1c[nH]cn1)NCCCN(Cc1ccc(Cl)c(Cl)c1)c1ccc(Br)cn1
[A] 52
